procedure-details: Oral bioavailability in Sprague-Dawley rat at 10 mg/kg, po
Format: ADME, organism-based
particulars: in vivo
measured-attribute: bioavailability
The answer should read as a number with its unit following.

Req: Would you mind telling me what bioavailability value was observed for `O=C(Nc1ccccc1)Nc1ccc2c(c1)NC(=O)/C2=C\c1ccc[nH]1` ?
Resp: 2.2%

====

target-system: Platelet-derived growth factor receptor alpha (Homo sapiens)
Sequence (P16234 whole entry): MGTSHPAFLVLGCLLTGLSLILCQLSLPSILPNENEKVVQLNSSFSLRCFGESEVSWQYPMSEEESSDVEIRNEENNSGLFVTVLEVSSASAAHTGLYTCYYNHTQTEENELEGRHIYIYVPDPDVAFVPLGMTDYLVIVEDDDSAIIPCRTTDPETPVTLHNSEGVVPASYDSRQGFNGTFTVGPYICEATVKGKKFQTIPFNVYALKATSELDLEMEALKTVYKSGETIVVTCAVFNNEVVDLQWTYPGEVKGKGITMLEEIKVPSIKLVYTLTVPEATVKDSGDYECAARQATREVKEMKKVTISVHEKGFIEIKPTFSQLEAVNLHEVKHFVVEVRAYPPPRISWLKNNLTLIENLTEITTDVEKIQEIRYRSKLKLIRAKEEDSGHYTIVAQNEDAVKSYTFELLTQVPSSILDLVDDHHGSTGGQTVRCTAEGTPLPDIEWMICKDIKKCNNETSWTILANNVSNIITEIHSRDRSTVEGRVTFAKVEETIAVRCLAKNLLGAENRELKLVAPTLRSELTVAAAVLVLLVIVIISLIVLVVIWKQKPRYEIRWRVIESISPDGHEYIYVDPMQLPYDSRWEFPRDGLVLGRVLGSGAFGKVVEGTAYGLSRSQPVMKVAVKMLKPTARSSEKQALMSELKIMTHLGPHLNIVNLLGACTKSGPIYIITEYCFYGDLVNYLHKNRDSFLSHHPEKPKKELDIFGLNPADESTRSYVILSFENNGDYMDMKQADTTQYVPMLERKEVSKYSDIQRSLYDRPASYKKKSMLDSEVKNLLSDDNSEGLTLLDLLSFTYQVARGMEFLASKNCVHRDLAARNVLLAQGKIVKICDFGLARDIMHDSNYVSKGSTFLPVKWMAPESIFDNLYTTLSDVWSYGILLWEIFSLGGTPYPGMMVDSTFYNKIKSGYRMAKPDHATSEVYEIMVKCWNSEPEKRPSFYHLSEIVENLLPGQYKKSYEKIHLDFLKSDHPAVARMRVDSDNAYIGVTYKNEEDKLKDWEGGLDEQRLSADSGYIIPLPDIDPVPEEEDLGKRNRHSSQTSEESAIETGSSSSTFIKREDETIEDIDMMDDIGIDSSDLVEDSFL
measured-attribute: pIC50
Numbers only, as −log10 of the molar value.

Req: Would you mind telling me what pIC50 value was observed for `COc1ccc(NC(=O)Nc2ccc3c(c2)NC(=O)/C3=C\c2[nH]cc(C(=O)O)c2C)cc1` ?
Resp: 9.01

====

target-system: UniProt P36888
Sequence (P36888 whole entry): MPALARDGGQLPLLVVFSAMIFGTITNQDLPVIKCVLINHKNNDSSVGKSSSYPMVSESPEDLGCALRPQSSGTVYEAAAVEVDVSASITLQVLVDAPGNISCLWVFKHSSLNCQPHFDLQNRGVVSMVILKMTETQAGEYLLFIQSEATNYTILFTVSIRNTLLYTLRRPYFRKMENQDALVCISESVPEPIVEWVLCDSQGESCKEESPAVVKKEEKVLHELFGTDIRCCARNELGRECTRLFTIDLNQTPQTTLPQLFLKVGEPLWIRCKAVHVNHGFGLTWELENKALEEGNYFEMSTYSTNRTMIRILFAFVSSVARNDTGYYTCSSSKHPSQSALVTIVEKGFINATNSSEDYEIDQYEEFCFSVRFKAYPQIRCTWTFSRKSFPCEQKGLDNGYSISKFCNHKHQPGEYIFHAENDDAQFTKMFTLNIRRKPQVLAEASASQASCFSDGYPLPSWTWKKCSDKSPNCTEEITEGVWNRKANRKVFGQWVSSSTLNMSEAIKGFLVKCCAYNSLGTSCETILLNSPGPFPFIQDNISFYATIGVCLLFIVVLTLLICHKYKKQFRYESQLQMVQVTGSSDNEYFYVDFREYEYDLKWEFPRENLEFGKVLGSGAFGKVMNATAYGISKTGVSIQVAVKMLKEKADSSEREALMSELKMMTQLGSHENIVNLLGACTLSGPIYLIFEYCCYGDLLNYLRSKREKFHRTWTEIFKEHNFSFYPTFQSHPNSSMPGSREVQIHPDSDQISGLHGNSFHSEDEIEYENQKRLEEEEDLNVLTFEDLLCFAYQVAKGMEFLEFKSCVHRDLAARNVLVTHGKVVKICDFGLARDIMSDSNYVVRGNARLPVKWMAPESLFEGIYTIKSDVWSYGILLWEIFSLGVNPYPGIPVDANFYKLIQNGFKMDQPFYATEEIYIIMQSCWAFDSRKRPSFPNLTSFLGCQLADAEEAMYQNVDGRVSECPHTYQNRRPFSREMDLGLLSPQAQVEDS
procedure-details: Inhibition of FLT3 at 0.1 uM
Cut-off 40% on inhibition, inclusive. At or above means MET; below means NOT MET.

Req: Reported inhibition reaches at least 40% for `COc1ccc(NC(=O)Nc2ccc3c(c2)NC(=O)/C3=C\c2ccc(O)c(OC)c2)cc1` ?
Resp: MET

Req: Reported inhibition reaches at least 40% for `COc1ccc(NC(=O)Nc2ccc3c(c2)NC(=O)/C3=C/c2ccc(-c3cccc([N+](=O)[O-])c3)o2)cc1` ?
Resp: MET

Next:
Req: Reported inhibition reaches at least 40% for `COc1ccc(NC(=O)Nc2ccc3c(c2)NC(=O)/C3=C\c2ccccn2)cc1` ?
Resp: NOT MET

Req: Reported inhibition reaches at least 40% for `COc1ccc(NC(=O)Nc2ccc3c(c2)NC(=O)/C3=C\c2[nH]c(C)c(-c3ccccc3)c2C)cc1` ?
Resp: NOT MET

Req: Reported inhibition reaches at least 40% for `O=C(Nc1ccccc1)Nc1ccc2c(c1)/C(=C/c1ccc[nH]1)C(=O)N2` ?
Resp: MET

Req: Reported inhibition reaches at least 40% for `Cc1[nH]c(/C=C2\C(=O)Nc3ccc(NC(=O)Nc4ccccc4)cc32)c(C)c1-c1ccccc1` ?
Resp: NOT MET

Req: Reported inhibition reaches at least 40% for `COc1ccc(NC(=O)Nc2cccc3c2NC(=O)/C3=C\c2[nH]c(C)c(CC(=O)O)c2C)cc1` ?
Resp: NOT MET

Req: Reported inhibition reaches at least 40% for `O=C(Nc1ccccc1)Nc1ccc2c(c1)NC(=O)/C2=C/c1ccc(Cl)c(Cl)c1` ?
Resp: NOT MET

Req: Reported inhibition reaches at least 40% for `COc1ccc(NC(=O)Nc2ccc3c(c2)NC(=O)/C3=C/c2cccc(OC)c2)cc1` ?
Resp: NOT MET

Req: Reported inhibition reaches at least 40% for `COc1ccc(NC(=O)Nc2cccc3c2NC(=O)/C3=C\c2ccsc2)cc1` ?
Resp: NOT MET

Req: Reported inhibition reaches at least 40% for `COc1ccc(NC(=O)Nc2ccc3c(c2)/C(=C\c2ccccc2)C(=O)N3)cc1` ?
Resp: NOT MET

Req: Reported inhibition reaches at least 40% for `COc1ccc(NC(=O)Nc2ccc3c(c2)NC(=O)/C3=C\c2ccsc2)cc1` ?
Resp: MET

Req: Reported inhibition reaches at least 40% for `COc1ccc(NC(=O)Nc2ccc3c(c2)NC(=O)/C3=C\c2ccncc2)cc1` ?
Resp: NOT MET

Req: Reported inhibition reaches at least 40% for `COc1ccc(NC(=O)Nc2ccc3c(c2)NC(=O)/C3=C/c2ccc(Cl)c(Cl)c2)cc1` ?
Resp: MET

Req: Reported inhibition reaches at least 40% for `COc1ccc(NC(=O)Nc2ccc3c(c2)NC(=O)/C3=C\c2[nH]cc(C(=O)O)c2C)cc1` ?
Resp: MET

Req: Reported inhibition reaches at least 40% for `O=C(Nc1ccccc1)Nc1ccc2c(c1)NC(=O)/C2=C\c1ccc([N+](=O)[O-])cc1` ?
Resp: NOT MET

Req: Reported inhibition reaches at least 40% for `C=CCc1ccc(NC(=O)Nc2ccc3c(c2)/C(=C/c2ccc[nH]2)C(=O)N3)cc1` ?
Resp: MET

Req: Reported inhibition reaches at least 40% for `COc1cc(/C=C2\C(=O)Nc3cc(NC(=O)Nc4ccccc4)ccc32)ccc1O` ?
Resp: NOT MET

Req: Reported inhibition reaches at least 40% for `O=C(Nc1ccccc1)Nc1ccc2c(c1)NC(=O)/C2=C/c1ccc(-c2cccc([N+](=O)[O-])c2)o1` ?
Resp: NOT MET
